// data source = ChEMBL document CHEMBL1201862

System Name: Fatty acid synthase (Homo sapiens)
Sequence (P49327 whole entry): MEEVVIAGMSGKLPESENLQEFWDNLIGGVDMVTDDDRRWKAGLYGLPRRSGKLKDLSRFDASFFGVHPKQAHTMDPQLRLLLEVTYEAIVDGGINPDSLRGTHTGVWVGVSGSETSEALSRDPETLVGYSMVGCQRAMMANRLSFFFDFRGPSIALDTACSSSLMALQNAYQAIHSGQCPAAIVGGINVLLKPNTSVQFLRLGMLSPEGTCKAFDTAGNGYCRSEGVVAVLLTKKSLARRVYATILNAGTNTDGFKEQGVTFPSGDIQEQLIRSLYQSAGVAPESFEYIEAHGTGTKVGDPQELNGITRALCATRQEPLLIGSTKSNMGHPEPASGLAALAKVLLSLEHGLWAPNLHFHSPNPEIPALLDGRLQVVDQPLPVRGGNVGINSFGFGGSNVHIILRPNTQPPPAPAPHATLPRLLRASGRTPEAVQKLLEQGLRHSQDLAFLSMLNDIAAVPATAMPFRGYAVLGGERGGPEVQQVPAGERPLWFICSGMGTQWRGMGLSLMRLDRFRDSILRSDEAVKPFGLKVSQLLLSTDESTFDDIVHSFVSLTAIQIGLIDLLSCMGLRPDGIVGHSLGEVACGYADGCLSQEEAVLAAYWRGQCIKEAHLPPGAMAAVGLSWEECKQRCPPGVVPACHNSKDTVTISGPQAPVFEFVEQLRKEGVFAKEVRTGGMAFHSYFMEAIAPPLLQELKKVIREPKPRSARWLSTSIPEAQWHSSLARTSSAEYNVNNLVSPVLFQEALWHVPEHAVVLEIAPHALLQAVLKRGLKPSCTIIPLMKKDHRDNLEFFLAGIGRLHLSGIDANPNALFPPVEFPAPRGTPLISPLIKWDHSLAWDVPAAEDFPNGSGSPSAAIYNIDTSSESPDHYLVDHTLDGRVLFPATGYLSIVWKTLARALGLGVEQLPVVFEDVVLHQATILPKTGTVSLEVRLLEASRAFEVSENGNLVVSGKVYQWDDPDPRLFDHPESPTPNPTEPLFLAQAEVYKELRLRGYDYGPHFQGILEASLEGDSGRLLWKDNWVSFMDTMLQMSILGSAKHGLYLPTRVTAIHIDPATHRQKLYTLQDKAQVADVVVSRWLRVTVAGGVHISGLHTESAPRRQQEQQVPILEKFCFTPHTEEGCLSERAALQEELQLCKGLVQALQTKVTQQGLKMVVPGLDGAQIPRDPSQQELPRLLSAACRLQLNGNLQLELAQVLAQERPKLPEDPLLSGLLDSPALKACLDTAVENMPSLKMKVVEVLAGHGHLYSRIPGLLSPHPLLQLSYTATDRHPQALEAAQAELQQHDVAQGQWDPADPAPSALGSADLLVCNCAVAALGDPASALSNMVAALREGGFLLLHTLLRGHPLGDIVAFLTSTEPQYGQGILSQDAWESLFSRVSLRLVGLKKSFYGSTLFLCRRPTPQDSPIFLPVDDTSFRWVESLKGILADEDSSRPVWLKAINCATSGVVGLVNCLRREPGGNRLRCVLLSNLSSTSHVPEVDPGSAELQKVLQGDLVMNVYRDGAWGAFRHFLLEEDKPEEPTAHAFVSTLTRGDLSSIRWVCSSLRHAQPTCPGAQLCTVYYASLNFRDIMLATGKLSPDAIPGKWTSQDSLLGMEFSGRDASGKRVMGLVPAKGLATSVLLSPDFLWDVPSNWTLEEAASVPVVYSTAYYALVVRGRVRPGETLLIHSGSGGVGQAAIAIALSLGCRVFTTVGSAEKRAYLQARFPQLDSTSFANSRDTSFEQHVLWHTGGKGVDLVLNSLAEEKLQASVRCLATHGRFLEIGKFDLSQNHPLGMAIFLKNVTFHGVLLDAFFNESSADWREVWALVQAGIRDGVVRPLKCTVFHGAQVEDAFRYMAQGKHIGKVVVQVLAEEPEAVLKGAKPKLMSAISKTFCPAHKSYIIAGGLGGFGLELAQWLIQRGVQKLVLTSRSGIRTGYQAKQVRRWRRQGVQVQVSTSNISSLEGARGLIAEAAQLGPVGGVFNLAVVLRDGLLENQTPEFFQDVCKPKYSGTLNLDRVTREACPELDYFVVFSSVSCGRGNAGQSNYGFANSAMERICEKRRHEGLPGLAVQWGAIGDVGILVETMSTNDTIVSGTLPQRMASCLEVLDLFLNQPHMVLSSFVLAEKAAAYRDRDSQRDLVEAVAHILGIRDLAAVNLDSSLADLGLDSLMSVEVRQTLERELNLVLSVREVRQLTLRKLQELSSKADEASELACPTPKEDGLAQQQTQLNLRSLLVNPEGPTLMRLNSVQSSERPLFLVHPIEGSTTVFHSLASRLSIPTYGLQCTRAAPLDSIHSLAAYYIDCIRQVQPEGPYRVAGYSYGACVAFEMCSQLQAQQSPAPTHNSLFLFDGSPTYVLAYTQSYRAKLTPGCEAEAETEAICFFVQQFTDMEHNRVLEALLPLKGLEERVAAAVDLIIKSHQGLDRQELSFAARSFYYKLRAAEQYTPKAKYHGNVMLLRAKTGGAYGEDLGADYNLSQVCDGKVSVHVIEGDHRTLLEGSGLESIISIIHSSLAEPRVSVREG
Assay Remarks: inhibition of human FAS-TE enzyme activity – biochemical, endpoint fluorescence intensity, uHTS hits, dose response (AID 624327);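 further: fluorescence from hydrolysis of an O-methyl fluorescein acyl ester substrate by the enzyme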
Assay type: functional
Active and inactive are the calls of the source.
# maps each entry to its IC50

QUERY: Recall the reported IC50 of `O=C(OCC(=O)N1CCN(c2ccccc2)CC1)c1cccc([N+](=O)[O-])c1` on Fatty acid synthase (Homo sapiens) and write it down.
RESULT: 7.7 µM (active)

QUERY: Report IC50 on Fatty acid synthase (Homo sapiens) for this entry: `N#Cc1cc(Oc2ccc(Cl)cc2)c(N2CCOCC2)cc1C#N`
RESULT: 4.35 µM (active)

QUERY: // output IC50; input `O=[N+]([O-])c1cccc(CN2CC=C(c3ccc(F)cc3)CC2)c1` ; system Fatty acid synthase (Homo sapiens)
RESULT: 11.4 µM (active)

QUERY: State the measured IC50 (Fatty acid synthase (Homo sapiens)) of `COc1ccc([N+](=O)[O-])cc1C(=O)NCCOc1ccc(Cl)cc1`
RESULT: 5.95 µM (active)

QUERY: Quote IC50 with test system Fatty acid synthase (Homo sapiens) for `O=C(COC(=O)c1cc([N+](=O)[O-])ccc1N1CCOCC1)NCCc1ccccc1`
RESULT: 1.98 µM (active)

====

System Name: Cytochrome P450 2C19 (Homo sapiens)
Sequence (P33261 whole entry): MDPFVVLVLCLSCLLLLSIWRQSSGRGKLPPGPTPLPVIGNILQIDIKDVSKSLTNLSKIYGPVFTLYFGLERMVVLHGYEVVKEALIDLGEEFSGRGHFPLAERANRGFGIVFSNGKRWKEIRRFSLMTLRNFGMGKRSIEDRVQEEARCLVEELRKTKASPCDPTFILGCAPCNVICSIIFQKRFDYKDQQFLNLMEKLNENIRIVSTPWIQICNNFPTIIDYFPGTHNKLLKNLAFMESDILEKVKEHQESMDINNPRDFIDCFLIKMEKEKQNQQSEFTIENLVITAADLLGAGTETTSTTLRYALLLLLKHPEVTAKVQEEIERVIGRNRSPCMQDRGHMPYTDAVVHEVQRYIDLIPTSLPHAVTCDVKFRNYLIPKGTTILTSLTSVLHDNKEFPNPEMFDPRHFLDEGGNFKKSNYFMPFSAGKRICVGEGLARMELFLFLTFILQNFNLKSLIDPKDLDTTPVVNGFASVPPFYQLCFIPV
Assay Remarks: Cytochrome panel assay with activity outcomes. Panel member name: p450-cyp2c19 Compounds with AC50 equal or less than 10 uM are considered active
Assay type: functional
Assay Context: read-out: AC50
Measure: AC50

1) Cc1ccc(NC(=S)N2CCN(CCN3C(=O)c4cccc5cccc(c45)C3=O)CC2)cc1
15.8 µM (inconclusive)
2) CNc1nc(-c2ccccc2C(F)(F)F)nc2ccccc12
31.6 µM (inconclusive)
3) Cc1ccc(-c2cc(-c3nnc(SCC(=O)NC(C)C(C)C)n3N)c3ccccc3n2)cc1 (stereo not given)
15.8 µM (inconclusive)
4) COc1ccc(C2C(C(=O)c3ccccc3)=C(O)C(=O)N2CC(C)O)c(OC)c1 (stereo not given)
6.31 µM (inconclusive)

QUERY: Item O=C(CSc1nnc(-c2ccc(Cl)cc2Cl)n1C1CCCCC1)NC1CCS(=O)(=O)C1 (stereo not given) : provide AC50
RESULT: 39.8 µM (inconclusive)

====

System Name: Microphthalmia-associated transcription factor (Homo sapiens)
Sequence (O75030 whole entry): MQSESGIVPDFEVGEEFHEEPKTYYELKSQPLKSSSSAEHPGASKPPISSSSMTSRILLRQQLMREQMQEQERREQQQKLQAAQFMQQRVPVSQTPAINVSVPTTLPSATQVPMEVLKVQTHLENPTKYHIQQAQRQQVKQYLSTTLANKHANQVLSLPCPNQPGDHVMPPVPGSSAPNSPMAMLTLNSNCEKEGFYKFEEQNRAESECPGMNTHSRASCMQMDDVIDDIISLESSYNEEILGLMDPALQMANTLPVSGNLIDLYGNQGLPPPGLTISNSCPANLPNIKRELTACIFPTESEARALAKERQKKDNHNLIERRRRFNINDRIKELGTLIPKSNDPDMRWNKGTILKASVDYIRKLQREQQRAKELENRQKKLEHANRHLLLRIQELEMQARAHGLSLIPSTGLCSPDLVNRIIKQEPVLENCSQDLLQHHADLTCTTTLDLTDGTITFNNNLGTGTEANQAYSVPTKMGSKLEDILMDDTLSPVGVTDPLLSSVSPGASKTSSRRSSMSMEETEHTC
Assay Remarks: reducers of TRPM1 reporter luminescence, concentration series – cell-based, SK-MEL-5, cherry-picked, set 3, MITF inhibitor project, dose response (AID 493073);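 further: SK-MEL-5 melanoma cells with luciferase driven by the MITF target TRPM1 promoter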
Format: functional
The source made the active and inactive calls.
Measure: AC50

1. O=C1NC(=O)N(Cc2ccccc2)C(=O)/C1=C/C=C/c1ccco1
4.85 µM (active)
2. COc1ccc(-c2c[n+](CC(=O)OC3CC(C)CCC3C(C)C)c3n2CCC3)cc1 (centres undefined)
4.87 µM (active)
3. COc1ccc(Br)cc1/C=C/C(=O)c1ccc(NC(C)=O)cc1
4.64 µM (active)

QUERY: Consider the compound `COc1cc(/C=C/C(=O)c2ccc3c(c2)OCCO3)cc(Br)c1OCC(=O)N(C)C` and give its recorded AC50.
RESULT: 6.17 µM (active)

====

Measured IC50, listed per entry.
System Name: Aminopeptidase N (Plasmodium falciparum FcB1/Columbia, UniProt O96935)
Assay Remarks: malaria alanyl aminopeptidase activity blockers – biochemical, fluorogenic H-Leu-NHMec substrate, 1536-well (AID 1445)
Set-up: species or system Plasmodium falciparum 3D7, 3D7
Active and inactive are the calls of the source.

Worked examples follow.
1. O=C(O)CCC(=O)N1N=C(c2c(-c3ccccc3)c3cc(Cl)ccc3[nH]c2=O)CC1c1ccco1 (stereo not given)
13 µM (active)
2. Cc1[nH]c2ccccc2c1/C=C1/C(=N)N2C(=NC1=O)SN=C2S(=O)(=O)CC(C)C
29.5 µM (active)
3. Cc1nnc(SCC(=O)N2CCC(c3noc4ccc(F)cc34)CC2)s1
39.1 µM (active)
4. O=C(O)CCC(=O)N1N=C(c2c(O)nc3ccc(Cl)cc3c2-c2ccccc2)CC1c1cccs1 (stereo not given)
5.76 µM (active)

Attention now shifts to the item below.
QUERY: # return recorded IC50 for input `Cc1ccc(CNC(=O)CSc2nc3ccsc3c(=O)n2NC(=O)c2ccccc2)cc1`
RESULT: 11.1 µM (active)

====

System Name: Polyadenylate-binding protein 1 (Homo sapiens, UniProt P11940)
Sequence (P11940 whole entry): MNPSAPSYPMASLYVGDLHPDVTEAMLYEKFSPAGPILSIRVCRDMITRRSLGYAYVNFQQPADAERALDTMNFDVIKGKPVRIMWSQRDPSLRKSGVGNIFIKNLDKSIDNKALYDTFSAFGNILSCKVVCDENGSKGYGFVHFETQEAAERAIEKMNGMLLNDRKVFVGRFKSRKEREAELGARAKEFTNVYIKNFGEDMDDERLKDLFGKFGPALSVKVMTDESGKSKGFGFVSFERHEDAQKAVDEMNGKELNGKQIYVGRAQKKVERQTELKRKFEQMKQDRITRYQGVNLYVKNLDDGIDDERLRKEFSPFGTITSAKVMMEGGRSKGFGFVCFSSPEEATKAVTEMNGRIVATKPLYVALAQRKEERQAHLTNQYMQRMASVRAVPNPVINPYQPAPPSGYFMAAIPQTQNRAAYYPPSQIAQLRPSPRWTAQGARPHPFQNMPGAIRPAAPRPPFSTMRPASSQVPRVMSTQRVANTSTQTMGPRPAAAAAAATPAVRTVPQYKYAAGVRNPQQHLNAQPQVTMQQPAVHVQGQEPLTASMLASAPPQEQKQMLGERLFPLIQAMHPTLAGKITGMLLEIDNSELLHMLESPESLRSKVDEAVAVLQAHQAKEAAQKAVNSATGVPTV
Assay Remarks: MLLE binding blockers, Cy5 peptide tracer – biochemical, fluorescence polarization, Cy5-PAM2 peptide, secondary, miRNA deadenylation inhibitor project, dose response (AID 602260)
Format: functional
Assay Context: read-out: IC50_Mean
Activity calls are given as the source filed them.
Measure: IC50

1. Nc1nc(-c2ccco2)c(-c2ccco2)s1
> 66 µM (inactive)
2. CCCOc1ccc(C(=O)NNC(=S)NC(=O)c2cc(-c3ccc(Cl)cc3)nc3ccccc23)cc1
> 66 µM (inactive)
3. O=S(=O)([N-]c1nc2ccccc2nc1-[n+]1ccc(Cc2ccccc2)cc1)c1ccc(Br)s1
> 66 µM (inactive)
4. O=C(/C=C/c1cccc([N+](=O)[O-])c1)NC(=S)Nc1ccc(CN2CCOCC2)cc1
> 66 µM (inactive)

--- query ---
QUERY: Retrieve IC50 on Polyadenylate-binding protein 1 (Homo sapiens, UniProt P11940); query `COc1cccc(-c2nc(=S)c3c(n2CCCO)CCCC3)c1`
RESULT: > 66 µM (inactive)

====

System Name: Heat shock protein HSP 90-alpha (Homo sapiens)
Assay type: functional, organism-based
The source made the active and inactive calls.
Entries annotated with measured AC50

Use the examples below as a reference point.
1. Cc1cc2cc(CNC(=O)c3ccc(C)c([N+](=O)[O-])c3)ccc2[nH]1
11 µM (active)
2. CC(C)c1ccc(-c2cc(C(=O)N3N=C(C(F)F)CC3(O)C(F)F)c3ccccc3n2)cc1 (stereo unspecified)
4.06 µM (active)
3. COc1ccc(C(C[N+](=O)[O-])n2nc(C)cc2C)cc1 (stereo unspecified)
1.94 µM (active)
4. O=C1CCCN1CCC1CCN(C2CC(=O)N(c3ccc(Cl)cc3)C2=O)CC1 (stereo unspecified)
7.56 µM (active)
5. CCCC1COC(Cn2cncn2)(c2ccc(C)cc2)O1 (stereo unspecified)
0.73 µM (active)

From here, focus on the item given below.
QUERY: In one line, give reported AC50 of the entry CCCCCCC(=O)N(O)C1CC(=O)N(c2ccc(Br)cc2)C1=O (stereo unspecified) .
RESULT: 3.17 µM (active)

====

System Name: Steroidogenic factor 1 (Homo sapiens, UniProt Q13285)
Sequence (Q13285 whole entry): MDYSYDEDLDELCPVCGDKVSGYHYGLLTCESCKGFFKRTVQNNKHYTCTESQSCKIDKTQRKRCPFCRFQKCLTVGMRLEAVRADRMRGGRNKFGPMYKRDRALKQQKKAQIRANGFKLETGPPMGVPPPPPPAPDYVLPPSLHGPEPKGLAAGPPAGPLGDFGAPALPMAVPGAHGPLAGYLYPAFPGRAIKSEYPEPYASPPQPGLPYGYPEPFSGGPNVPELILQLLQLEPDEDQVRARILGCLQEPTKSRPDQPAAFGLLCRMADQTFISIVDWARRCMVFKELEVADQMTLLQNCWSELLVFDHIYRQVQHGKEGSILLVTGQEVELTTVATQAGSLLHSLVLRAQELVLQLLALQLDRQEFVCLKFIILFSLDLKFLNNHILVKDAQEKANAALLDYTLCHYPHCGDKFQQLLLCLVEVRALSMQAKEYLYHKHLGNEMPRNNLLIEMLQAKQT
Assay Remarks: Counterscreen for inverse agonists of the liver receptor homolog-1 (LRH-1; NR5A2): Luminescence-based cell-based high throughput dose response assay to identify inverse agonists of the Steroidogenic Factor 1 Nuclear Receptor (SF1; NR5A1).
Type: functional
Calls of active or inactive are those of the source.
Answer with one of the outcomes given here: True for active, False for inactive

These solved cases illustrate the format of a correct answer.
1) Cc1onc(-c2c(F)cccc2Cl)c1C(=O)ON=C(N)c1ccc([N+](=O)[O-])o1
True
2) Cc1nnc(SCC(=O)Nc2ccc(Br)cc2)n(N)c1=O
False
3) Cc1ccc(-c2csc(NC(=O)c3ccc([N+](=O)[O-])o3)n2)cc1
True
4) CC(=O)Nc1cc(-c2cccc(F)c2)cn2c(-c3ccc(S(C)(=O)=O)cc3)cnc12
True
5) Cc1cccc(CN2C(=O)CSc3ccc(C(=O)NC4CC4)cc32)c1
True

QUERY: Dear all, I need the recorded test outcome for `CCOc1cc(/C=N/n2nnnc2N)ccc1OCc1c(C)no[n+]1[O-]` , thank you.
RESULT: True

QUERY: Lab log entry: `Cc1ccc(NC(=O)CSc2sc3c(O)cc(O)nc3c2C#N)c(F)c1` — outcome as called in the assay?
RESULT: False

====

System Name: Induced myeloid leukemia cell differentiation protein Mcl-1 (Homo sapiens)
Sequence (Q07820 whole entry): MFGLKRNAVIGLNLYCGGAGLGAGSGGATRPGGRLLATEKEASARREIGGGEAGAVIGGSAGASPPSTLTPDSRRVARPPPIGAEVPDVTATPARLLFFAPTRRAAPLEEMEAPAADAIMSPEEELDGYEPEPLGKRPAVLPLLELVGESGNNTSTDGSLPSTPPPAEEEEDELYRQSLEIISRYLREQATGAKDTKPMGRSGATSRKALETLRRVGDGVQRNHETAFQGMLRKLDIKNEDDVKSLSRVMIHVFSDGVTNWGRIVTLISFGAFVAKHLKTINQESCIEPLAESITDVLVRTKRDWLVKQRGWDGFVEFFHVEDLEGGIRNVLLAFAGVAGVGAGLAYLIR
Assay type: functional
Active and inactive are the calls of the source.
Let's look at some molecules and their measured IC50.

1) O=C(CN1CCN(c2ccc(O)cc2)CC1)Nc1cc([N+](=O)[O-])ccc1Cl
5.07 µM (active)
2) Cc1n[nH]c(S/C(=C\c2ccc(-c3ccc(C(=O)O)c(Cl)c3)o2)C(=O)O)n1
2.35 µM (active)
3) CCN(CC)c1nc2c3c(nc4c(c3c1C#N)CC(=O)N4c1ccc(Cl)cc1)NC(C)=N2
2.18 µM (active)

Lab note: next molecule to report on.
QUERY: # return IC50 for `O=C(O)c1ccc(-n2cccc2/C=C2/NC(=O)N(c3cccc(Cl)c3)C2=O)cc1` , test system: Induced myeloid leukemia cell differentiation protein Mcl-1 (Homo sapiens)
RESULT: 6.34 µM (active)
